target-entity: HSP90
Construct: FLAG-tagged HSP90 expressed in GBM12 cells, immuno-precipitated by its tag
test-protocol: ATPase activity (ATP-lite luminescence) of immunoprecipitated FLAG-HSP90 on Sepharose beads
measurement-label: IC50

Data request: Lab note: need IC50 with HSP90 for entry NCC(=O)Nc1ccc(-n2nc(C(F)(F)F)cc2-c2ccc3c(ccc4ccccc43)c2)cc1 [AR12] , please look it up.
Data returned: ~300 nM

====

target-entity: GRP78 (Homo sapiens, UniProt P11021)
Construct: GRP78 expressed from a plasmid in GBM12 cells, immuno-precipitated with an antibody to the COOH terminal portion
Sequence (P11021 19-654): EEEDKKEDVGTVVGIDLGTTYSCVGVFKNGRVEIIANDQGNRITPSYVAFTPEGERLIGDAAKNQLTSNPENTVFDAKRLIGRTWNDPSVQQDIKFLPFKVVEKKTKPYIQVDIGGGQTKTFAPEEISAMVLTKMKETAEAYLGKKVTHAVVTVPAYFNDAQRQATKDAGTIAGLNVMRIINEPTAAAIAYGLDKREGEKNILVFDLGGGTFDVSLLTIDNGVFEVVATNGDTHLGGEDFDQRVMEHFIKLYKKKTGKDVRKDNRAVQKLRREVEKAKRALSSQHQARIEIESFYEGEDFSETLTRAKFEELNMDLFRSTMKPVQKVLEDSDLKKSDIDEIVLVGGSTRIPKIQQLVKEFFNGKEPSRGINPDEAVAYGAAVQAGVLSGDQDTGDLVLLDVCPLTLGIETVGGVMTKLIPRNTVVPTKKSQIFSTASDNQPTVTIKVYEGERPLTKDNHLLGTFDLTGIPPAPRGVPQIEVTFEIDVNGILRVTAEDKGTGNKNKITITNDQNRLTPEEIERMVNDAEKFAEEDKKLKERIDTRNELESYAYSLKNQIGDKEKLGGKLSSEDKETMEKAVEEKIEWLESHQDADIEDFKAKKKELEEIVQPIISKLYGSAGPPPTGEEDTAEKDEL
test-protocol: ATPase activity (ATP-lite luminescence) of immunoprecipitated GRP78 on Sepharose beads
measurement-label: IC50

Data request: # get_value(readout= IC50, system= GRP78 (Homo sapiens, UniProt P11021)) for NCC(=O)Nc1ccc(-n2nc(C(F)(F)F)cc2-c2ccc3c(ccc4ccccc43)c2)cc1
Data returned: ~80 nM
